compounds and their reported melting point
Enter your answer as a number in °C; do not include the unit.

# example entries with known answers
>>> reported_value("CNC(=O)c1cccc(-c2c(Cl)cccc2Cl)c1 [1-30]")
174.8
>>> reported_value("CCNC(=O)c1cccc(-c2c(Cl)ccc(C(F)(F)F)c2Cl)c1 [1-127]")
137
>>> reported_value("CNC(=O)c1cc(-c2c(Cl)cccc2Cl)ccc1F [2-22]")
142.5

Entry Nc1cccc(-c2c(Cl)cccc2Cl)c1 [1-268, 3-(2′,6′-dichlorophenyl)aniline] ; melting point = 102

Entry CNC(=O)c1cc(-c2c(C)cc(C)cc2C)ccc1Cl [Compound No. 2-12] ; melting point = 130

Entry CNC(=O)c1cccc(-c2c(Cl)ccc(Cl)c2Cl)c1 [1-72] ; melting point = 135.3

Entry CNC(=O)c1cccc(-c2c(C)cc(Cl)cc2C)c1 [Compound No. 1-23] ; melting point = 137.1

Entry CNC(=O)c1cccc(-c2c(C)cc(C)cc2C)c1 [1-22] ; melting point = 142.9

Entry Cc1cc(Oc2ccc(C(F)(F)F)cn2)cc(C)c1-c1cccc(N)c1 [Compound No. 1-57] ; melting point = 200.3

Entry CNC(=O)c1cccc(-c2c(Cl)ccc(Br)c2Cl)c1 [1-82] ; melting point = 158
